// values below are reported minimal effective concentration
System: Aspergillus fumigatus MYA3626
assay.info: In vitro antifungal assay (Example IX), microdilution broth, MEC
Format: cell-based
condition.parameters: minimum effective concentration (shortening of hyphae), 35° C., 40-48 h, RPMI1640
attribute.measured: minimal effective concentration

INSERT INTO results (chem_smiles, attribute_measured, measured) VALUES
  ('C#CCCOc1ccc(Cc2cc(-c3cccnc3N)on2)cn1', 'minimal effective concentration', '0.01 to 0.1 µg/mL'),
  ('CCn1cc(Cc2ccc(Cc3cc(-c4cccnc4N)on3)cc2)cn1', 'minimal effective concentration', '0.01 to 0.1 µg/mL'),
  ('C=Cc1ccc(Cc2cc(-c3cccnc3N)on2)cc1', 'minimal effective concentration', '0.1 to 1 µg/mL');
